Every entry's value here was drawn from the DeepSol protein solubility set.

- Test Details: soluble on expression in E. coli; label from the status in PepcDB or PDB records
Property Name: soluble on expression in E. coli

[[record]]
residue_string = "MGSDKIHHHHHHMNQFHLTEDQQDCLQELINIAMGQASDQLARYLDTFVYLKVPSIESVEAKDLMKTLSQQKNTVAVVSQGFFGYEGIRGEALLVYKEENSGRIADLLGYEPDELSQDEQLIDISSILTTTFLNVFAQQINNQLSYNAPKLLPNVQEILSEHLQQMPFTWDLALKVNINYQVTDYSFNCNMILLIPETAITNIKHVLDRILEEF"
property_name = "soluble on expression in E. coli"
recorded_result = "not soluble"

[[record]]
residue_string = "MQQLKAKSLEMRTPQATKTAVLVIGGAEDKVHGREILRTFVARAGASKAYITIIPSASREPAIIGGRYIRIFEEMGAEKVEILDIREREQCDSSQIKASLEACTGVFLTGGDQLRLCGVLSDTAAMDIIRQRVRAGQLTLAGTSAGAAVMGHHMIAGGGSGETPNRSLVDMATGLGFIPEVIVDQHFHNRNRMGRLVSAIAAHPDRLGIGIDEDTCAVFERDGWLQVMGKGSVTIVDPTELTHTNEPLVSANEPLTVHNLRLHILSYGDRFHLYQRTVLPAVHRISS"
property_name = "soluble on expression in E. coli"
recorded_result = "soluble"

[[record]]
residue_string = "MGSDKIHHHHHHMRLTSREKEIFEVLKKEPLISQEELARRFNITRSSIAVHISNLMKKGVILGKGYVFNEQVSVVVIGESYYYIKTSGPDNDCSINMGLGGFAVDTGRIFANFGLNVKLITIVGNDEEGTNIFNELQGKGVDIVNIFRHAKKRSCRKVFLDDKRILEENFSLQDYEKAIDAREWVVFNCEWLVVDTRFQELLCHKAIGKDEEKLPFFCTCRYLYSIEEIPSFLSRYDLLVLGVADSNIMDHYLSQALALSSNGVQSVILSDGNTRLFYFQKGNAHEFPLLPNQCFDSQEGLPALLAGIVYGLSSGYSLRQAVRIAVGTAASND"
property_name = "soluble on expression in E. coli"
recorded_result = "not soluble"

[[record]]
residue_string = "MQDFKKLPTVLTAEELIDKIFRRAARVEGRNPKEKALNKLATISNVSRDYFGKIIGAHPSYENLPDFYREMVDVVVGIRQLKKSLVALKWADGMIQKVVSRAVREVKGGKNPSAVVKSAYGRVASIIEQIDDELRFLNDAKNRMREIPILQDLPTIVVAGYPNVGKSSLVARISTVKPEVASYPFTTKKINLGFAEFAGKRVQIIDTPGLLDRPLSKRNRIERRAVLALKHLADIILFVIDPTETCGYSLEKQLSLLEEIKGYFAKPTVEVYSKADMHDRRDRQAYSAVTGEGIDELIKEIEKMVKIHSQTSTVIAPSGQTSTQEQHSAAALEHHHHHH"
property_name = "soluble on expression in E. coli"
recorded_result = "not soluble"

[[record]]
residue_string = "MTSVSGCGSVSLITNRSAFLGNGLQHRAVFLKPWSSSSLQSRSMVVEAKTKTSSEDRIARHSRIRKKVNGTTERPRLCVFRSNKHLYVQVIDDTKMHTLASASTKQKPISEEFDYTSGPTIEVAKKVGEVIAKSCLEKGITKVAFDRGGYPYHGRIEALAAAAREHGLQF"
property_name = "soluble on expression in E. coli"
recorded_result = "not soluble"

[[record]]
residue_string = "MAEEKFFLGRQPILDREQRLYGFELLFRSADSLHANVTDYLQASASVIFDALSSFGFREILGKHKGFINVNADVLMSEALELLPPEKVVIELLEHVPITETVISRCHELREKGFSLALDDHIYEPVYEPLYHLVDVIKVDLFRTGMENLASEVETLRKWNTKLLAEKVETVEQYERCADLGFTYFQGYYFARP"
property_name = "soluble on expression in E. coli"
recorded_result = "not soluble"

[[record]]
residue_string = "MNVVRYTPWPGQAALQNEIKQVFDRFFEHNGDTDESAVVTAQWVPRVDIKEEPNQFVLYADLPGIDPADIEVQMDKGILSIKGERKTESSSQTEHFSRIERRYGSFHRRFALPDSADADGITASGSHGVLRILIPKQAATTPRRIQVGNAVSSDVALQSMLEHHHHHH"
property_name = "soluble on expression in E. coli"
recorded_result = "soluble"

[[record]]
residue_string = "MSLDNFIAGLPKLELHLHIEGSLEPELMFALGQRNGVALPWPDVASVRAAYEFDCLQSFLDLYYLGASVLITEQDFFDLTWAYLERCAADKVVHVEIFFDPQTHTARGVPFATVLGGIERALQRGEWEFGISWRLIMSFLRHLSEEDAFATLAEATPFLSRIHGIGLDSGEKGNPPSKFARVFARCRELGLPVVAHAGEEGPADYIWQAIRELEVRRIDHGVRCVDDPDLLRYLADTRLPLTVCPLSNTRLKVFDQMAHHNVLALLEQGLCVTINSDDPAYFGGYMNANFHALAHELGASMNQLCRLSLNAVEASWLSLADKARLTREGHHHHHH"
property_name = "soluble on expression in E. coli"
recorded_result = "soluble"

[[record]]
residue_string = "MGSDKIHHHHHHMKRMKGIVYGGLLSVVFVMSGCSGSQKEGRDSKEIPVEIVKVAKTVPADTRNYVGTVEEVVSSSISFQVMGNVERVLVGEGQKVREGQLLAVLDKATLENAYNASAASLRQAEDAYARMRTLHENKSLPDMKWVEVESKLEQARSMERISRKNLEDRNLYAPFGGVIGKRMVEAGENVQPGQPVFSLLRIETVNVKIAVPENEVATLGDQAAMIKVAALGGQCFEGKVTEKGIVANPISHTYEAKIRLENPSGALLPGMVCDVRLSGEESVPAITLPNNAVLIANDGGRFVWKVVDGKAKATPVRTGDLTEQGLFILEGLNEGDIVVIGGYQKISEGMRVRAL"
property_name = "soluble on expression in E. coli"
recorded_result = "not soluble"

[[record]]
residue_string = "MRVVVCGGGVIGACAAYFLRRRGIDVTVVERTEVAAAASGKAGGFLARDWCTGTPLDALARRSFALHAQLPEDISGDWGYRPMTAYSGFVASDGDARRDAPSALGWLSDGVVIAQRIGTAETTAIVHPRKFTSAVMNAALAQGAELRPGRVTGITRGTDGMTAGGVEIDGDLVEADAVVIAMGPWSLLAAQWMSLPPVYGQRSPSIVYDTAADAPAEALFLESEEDGSAVSIEVFPRADGSTHITALSDIAPLPLDPAAVTPDRDAIARLQTVSERLSPLFRPERIIAQQACFRPVTQDGLPLIGKVPRSDGLYVATGHNVWGILNAPATGEALAELIAEGATREIDLSPFDPARLTPLDPSLLQARLEHHHHHH"
property_name = "soluble on expression in E. coli"
recorded_result = "not soluble"

